Assay: logP determination by HPLC on a reversed-phase column (C18), EEC Directive 79/831 Annex V.A8
Type: physicochemical
Details: reversed-phase HPLC column (C18), HPLC-MS method a); read-out: logP^a)
Metric name: chromatographic logP
Simply state the number, no unit and no words.

{"columns": ["Compound", "Observed value"],
 "data": [
  ["Cc1cc(C(F)(C(F)(F)F)C(F)(F)F)cc(C)c1-c1ccn(-c2ccc(Cl)c(C(=O)NC3CC3)c2)n1 [I-T2-1]", 4.9],
  ["COc1cc(C(F)(F)F)cc(F)c1-n1cc(-c2ccc(Cl)c(C(=O)NC3CC3)c2)cn1 [I-T3-50]", 3.1],
  ["O=C(NC1CC1)c1cc(-c2cnn(-c3c(F)cc(C(F)(F)F)cc3F)c2)ccc1Cl [I-T3-48]", 3.2]
]}

Next compound, chromatographic logP to be filled in.
Query (compound): Cc1cc(C(F)(C(F)(F)F)C(F)(F)F)cc(C)c1-n1cc(-c2ccc(Cl)c(C(=O)NC3CC3)c2)cn1 [I-T3-1] ; field requested: chromatographic logP 4.4

* * *

This listing pairs molecules with measured efficacy.
System: Rhipicephalus sanguineus
Experiment: Rhipicephalus sanguineus - in vitro contact tests with adult brown dog ticks
Format: in vivo
Details: application rate 5 μg/cm^2, after 48 h (dead or moribund)
A complete answer gives the number followed by the unit.

Example entries begin here.
{"columns": ["Smiles repr", "efficacy"],
 "data": [
  ["N#CC1(NC(=O)c2cc(-c3cnn(-c4ccc(C(F)(C(F)(F)F)C(F)(F)F)cc4C(F)(F)F)c3)ccc2Cl)CC1", "100%"],
  ["N#CC1(NC(=O)c2cc(-c3cnn(-c4c(Cl)cc(C(F)(C(F)(F)F)C(F)(F)F)cc4OC(F)(F)F)c3)ccc2Cl)CC1", "100%"],
  ["Cc1cc(C(F)(C(F)(F)F)C(F)(F)F)cc(C(F)(F)F)c1-n1cc(-c2cnc(Cl)c(C(=O)NC3CC3)c2)cn1", "100%"]
]}

Query (molecule): CCc1cc(C(F)(C(F)(F)F)C(F)(F)F)cc(C)c1-n1cc(-c2ccc(Cl)c(C(=O)NC3CC3)c2)cn1 ; field requested: efficacy 100%

* * *

This listing pairs compounds with measured log P.
Assay: logP determination by HPLC on a reversed-phase column (C18), EEC Directive 79/831 Annex V.A8
Format: physicochemical
Conditions: HPLC-MS, reversed-phase column (C18)
Simply state the number, no unit and no words.

{"columns": ["Compound", "Metric name", "Observed value"],
 "data": [
  ["N#CC1(NC(=O)c2cc(-c3cnn(-c4c(Br)cc(C(F)(C(F)(F)F)C(F)(F)F)cc4C(F)(F)F)c3)ccc2Cl)CC1 [I-T3-155]", "log P", 4.4],
  ["CCSc1cc(C(F)(F)F)cc(Cl)c1-n1cc(-c2ccc(Cl)c(C(=O)NC3(C#N)CC3)c2)cn1 [I-T3-170]", "log P", 3.7],
  ["CN(C(=O)c1cc(-c2cnn(-c3ccc(C(F)(C(F)(F)F)C(F)(F)F)cc3C(F)(F)F)c2)ccc1Cl)C1CC1 [I-T3-134]", "log P", 4.9],
  ["Cc1cc(C(F)(C(F)(F)F)C(F)(F)F)cc(C)c1-n1cc(-c2cnc(C)c(C(=O)N(C)C3(C#N)CC3)c2)cn1 [I-T3-115]", "log P", 3.8],
  ["N#CC1(NC(=O)c2cc(-c3cnn(-c4c(Cl)cc(C(F)(F)F)cc4[N+](=O)[O-])c3)ccc2Cl)CC1 [I-T3-169]", "log P", 3.2],
  ["O=C(NC1CC1)c1cc(-c2cnn(-c3ncc(C(F)(F)F)cc3C(F)(F)F)c2)ccc1Cl [I-T3-150]", "log P", 3.6],
  ["Cn1ccc(NC(=O)c2cc(-c3cnn(-c4c(Cl)cc(C(F)(F)F)cc4Cl)c3)cnc2Cl)n1 [I-T3-146]", "log P", 2.8],
  ["CSc1cc(C(F)(C(F)(F)F)C(F)(F)F)cnc1-n1cc(-c2ccc(Cl)c(C(=O)NC3(C#N)CC3)c2)cn1 [I-T3-166]", "log P", 4.3],
  ["CCSc1cc(C(F)(F)F)cc(Cl)c1-n1cc(-c2ccc(Cl)c(C(=O)NC3CC3)c2)cn1 [I-T3-172]", "log P", 3.9],
  ["CCNC(=O)c1cc(-c2cnn(-c3c(Cl)cc(C(F)(F)F)cc3Cl)c2)cnc1C [I-T3-147]", "log P", 4.0]
]}

Query (compound): Cc1cc(C(F)(C(F)(F)F)C(F)(F)F)cc(C)c1-n1cc(-c2cnc(C3CC3)c(C(=O)NC3CC3)c2)cn1 [I-T3-140] ; field requested: log P 4.2

Query (compound): CN(C(=O)c1cc(-c2cnn(-c3c(Cl)cc(C(F)(F)F)cc3Cl)c2)cnc1Cl)C1CC1 [I-T3-99] ; field requested: log P 3.5

Query (compound): CCSc1cc(C(F)(F)F)cc(C#N)c1-n1cc(-c2ccc(Cl)c(C(=O)NC3(C#N)CC3)c2)cn1 [I-T3-177] ; field requested: log P 3.4

Query (compound): Cc1cc(C(F)(C(F)(F)F)C(F)(F)F)cc(C)c1-n1cc(-c2cnc(Cl)c(C(=O)N(C)C3(C#N)CC3)c2)cn1 [I-T3-103] ; field requested: log P 4.3

Query (compound): Cc1ncc(-c2cnn(-c3c(Cl)cc(C(F)(F)F)cc3Cl)c2)cc1C(=O)NC1(C#N)CC1 [I-T3-129] ; field requested: log P 2.6

Query (compound): COc1ncc(-c2cnn(-c3c(C)cc(C(F)(C(F)(F)F)C(F)(F)F)cc3C)c2)cc1C(=O)NC1(C#N)CC1 [I-T3-141] ; field requested: log P 4.4

Query (compound): O=C(NC1CC1)c1cccc(-c2cnn(-c3ncc(C(F)(F)F)cc3Cl)c2)c1 [I-T3-122] ; field requested: log P 3.0

Query (compound): Cc1cc(C(F)(C(F)(F)F)C(F)(F)F)cc(I)c1-n1cc(-c2ccc(Cl)c(C(=O)NC3CC3)c2)cn1 [I-T3-175] ; field requested: log P 4.5

Query (compound): Cc1cc(C(F)(C(F)(F)F)C(F)(F)F)cc(C)c1-n1cc(-c2cnc(C)c(C(=O)NC3(C#N)CC3)c2)cn1 [I-T3-97] ; field requested: log P 3.4

* * *

Assay: logP determination by HPLC on a reversed-phase column (C18), EEC Directive 79/831 Annex V.A8
Assay type: physicochemical
Settings: HPLC, reversed-phase C18, acetonitrile/water with formic acid, 55° C.
Metric name: logP
Simply state the number, no unit and no words.

{"columns": ["Compound", "logP"],
 "data": [
  ["CN(C(=O)c1cc(-c2ccn(-c3c(Cl)cc(C(F)(C(F)(F)F)C(F)(F)F)cc3Cl)c2)cnc1Cl)C1CC1 [I-T46-3]", 5.0],
  ["CN(C(=O)c1cc(-c2ccn(-c3c(Cl)cc(C(F)(C(F)(F)F)C(F)(F)F)cc3Cl)c2)cnc1Cl)C1(C#N)CC1 [I-T46-6]", 4.8],
  ["Cc1cc(C(F)(C(F)(F)F)C(F)(F)F)cc(C)c1-c1cnn(-c2cnc(Cl)c(C(=O)NC3(C#N)CC3)c2)c1 [I-T4-4]", 4.3],
  ["N#CC1(NC(=O)c2cc(-c3ccn(-c4c(Cl)cc(C(F)(C(F)(F)F)C(F)(F)F)cc4Cl)c3)cnc2Cl)CC1 [I-T46-5]", 4.4],
  ["N#CC1(NC(=O)c2cc(-c3cc(-c4c(Cl)cc(C(F)(C(F)(F)F)C(F)(F)F)cc4Cl)on3)ccc2Cl)CC1 [I-T23-2]", 4.8],
  ["Cc1cc(C(F)(C(F)(F)F)C(F)(F)F)cc(C)c1-c1cnn(-c2ccc(Cl)c(C(=O)NC3(C#N)CC3)c2)c1 [I-T4-2]", 4.6]
]}

Next compound, logP to be filled in.
Query (compound): Cc1cc(C(F)(C(F)(F)F)C(F)(F)F)cc(C)c1-n1ccc(-c2ccc(Cl)c(C(=O)NC3(C#N)CC3)c2)c1 [I-T46-1] ; field requested: logP 4.90

* * *

Assay: logP determination by HPLC on a reversed-phase column (C18), EEC Directive 79/831 Annex V.A8
Format: physicochemical
Settings: HPLC on reversed-phase column (C18)
Output Fulfilled for log P not less than 4; output Not fulfilled otherwise.

{"columns": ["Smiles repr", "Discrete label"],
 "data": [
  ["O=C(NC1CC1)c1cc(-c2cnn(-c3c(Cl)cc(C(F)(C(F)(F)F)C(F)(F)F)cc3OC(F)(F)F)c2)cnc1Cl", "Fulfilled"],
  ["N#CC1(NC(=O)c2cc(-c3cnn(-c4c(Cl)cc(C(F)(C(F)(F)F)C(F)(F)F)cc4OC(F)F)c3)cnc2Cl)CC1", "Not fulfilled"],
  ["N#CC1(NC(=O)c2cc(-c3cnn(-c4c(I)cc(C(F)(C(F)(F)F)C(F)(F)F)cc4C(F)(F)F)c3)ccc2Cl)CC1", "Fulfilled"],
  ["N#CC1(NC(=O)c2cc(-c3cnn(-c4c(Cl)cc(C(F)(C(F)(F)F)C(F)(F)F)cc4I)c3)ccc2Cl)CC1", "Fulfilled"],
  ["CN(C(=O)c1cc(-c2cnn(-c3c(Cl)cc(C(O)(C(F)(F)F)C(F)(F)F)cc3Cl)c2)cnc1Cl)C1CC1", "Not fulfilled"]
]}

Next:
Assess whether reported log P for NC(=O)C1(NC(=O)c2cc(-c3cnn(-c4c(F)c(F)c(C(F)(F)F)c(F)c4F)c3)ccc2Cl)CC1 sits at 4 or higher. Not fulfilled
